assayed.system: UniProt:O88867
Sequence (O88867 whole entry, looked up): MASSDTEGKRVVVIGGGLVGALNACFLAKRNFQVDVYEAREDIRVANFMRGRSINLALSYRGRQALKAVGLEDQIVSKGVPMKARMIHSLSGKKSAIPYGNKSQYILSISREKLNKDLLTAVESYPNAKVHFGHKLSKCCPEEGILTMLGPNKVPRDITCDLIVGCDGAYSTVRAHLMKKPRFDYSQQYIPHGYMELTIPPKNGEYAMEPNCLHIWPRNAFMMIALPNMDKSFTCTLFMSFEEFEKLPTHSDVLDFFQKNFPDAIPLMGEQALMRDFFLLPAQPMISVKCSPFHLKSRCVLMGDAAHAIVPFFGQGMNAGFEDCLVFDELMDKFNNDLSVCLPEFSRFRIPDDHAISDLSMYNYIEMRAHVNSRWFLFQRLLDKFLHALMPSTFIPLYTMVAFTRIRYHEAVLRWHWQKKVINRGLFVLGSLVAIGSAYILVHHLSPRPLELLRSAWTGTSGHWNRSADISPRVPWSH
protocol.details: Percent activity of rat striatal kynurenine 3-hydroxylase (KYN3OH) activity at 1 mM by quantifying 3-hydroxykynurenine production
experimental.endpoint: % activity (%)

In [3]: df
Out[3]:
                          smiles_string  endpoint_value
0   COc1ccc(N)c(C(=O)CCNC(=O)C2CCCC2)c1            96.3
1         COc1ccc(N)c(C(=O)CCNC(C)=O)c1             102
2  COc1ccc(N)c(C(=O)CCNC(=O)C2CCCCC2)c1            99.6
3          CCC(=O)NCCC(=O)c1cc(OC)ccc1N            99.4
4     COc1ccc(N)c(C(=O)CCNC(=O)C2CC2)c1            99.9
5    COc1ccc(N)c(C(=O)CCNC(=O)C2CCC2)c1            92.2
6        CCCCC(=O)NCCC(=O)c1cc(OC)ccc1N            97.2
7  COc1ccc(N)c(C(=O)CCNC(=O)c2ccccc2)c1            97.2
